Quick note: these are pKi numbers for system: Carbonic anhydrase 1 (Homo sapiens)
Sequence (P00915 whole entry): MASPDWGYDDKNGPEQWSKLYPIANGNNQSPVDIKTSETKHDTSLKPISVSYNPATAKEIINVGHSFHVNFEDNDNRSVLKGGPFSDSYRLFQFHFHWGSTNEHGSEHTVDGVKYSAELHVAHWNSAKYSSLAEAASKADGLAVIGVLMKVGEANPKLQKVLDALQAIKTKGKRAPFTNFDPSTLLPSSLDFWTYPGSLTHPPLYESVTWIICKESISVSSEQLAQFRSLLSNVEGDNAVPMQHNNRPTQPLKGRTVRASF
Quick note: pKi values are minus log10 of concentrations in mol/L.

{"Compound": "COc1cc(/C=C/C(=O)O)ccc1O", "Target or system": "Carbonic anhydrase 1 (Homo sapiens)", "Numeric result": 3.39}
{"Compound": "O=C(O)c1ccc(O)cc1 [4-Hydroxybenzoate, III]", "Target or system": "Carbonic anhydrase 1 (Homo sapiens)", "Numeric result": 2.97}
{"Compound": "O=c1oc2c(O)c(O)cc3c(=O)oc4c(O)c(O)cc1c4c23", "Target or system": "Carbonic anhydrase 1 (Homo sapiens)", "Numeric result": 3.68}
{"Compound": "O=c1c(O)c(-c2ccc(O)c(O)c2)oc2cc(O)cc(O)c12", "Target or system": "Carbonic anhydrase 1 (Homo sapiens)", "Numeric result": 4.00}

# input for lookup
Quick one: pKi for O=C(O)c1cc(O)c(O)c(O)c1 ?
2.98
